Test system: PPARg:RXRa IVT, anti-PPARg (NR concentration 270 nM, RXRa partner concentration 90 nM)
PROTOCOL_DESCRIPTION: PBM binding z-score (relative to random genomic background probes); higher = stronger binding; sequences stand for … in GC…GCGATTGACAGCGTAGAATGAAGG
MEASURED_PARAMETER: PBM binding z-score
# respond with the number and nothing more

Examples from the recorded data:
CGAACTAGGTCAGAACAGGACAGTGAGGGATGAT = 7.16
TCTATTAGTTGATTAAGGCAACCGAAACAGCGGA = 0.341
TGAATGATGTTAAAGATCAGGGAACGTGGCGTCG = 0.00051
TCATATAGGTAAAGGCGAAAGTCGAACGATATGA = 2.3
TTACCAAGGTGAAGGTCGCTGATCCCTCTGTAGA = 3.41
CTCGAAAGGTCGGTTGAGGTGAGTATTCGGATAA = 0.955
AGAACGAGGGCACGCTGAGTTGATAGCTGAGTAG = 3.75
ATCTCTAAGTAAGACTCAGTTCAGTGAAGAACGC = 0.218
TCTTGTCGATCAACAGGAGGTTAAGAAAGATCGA = 0.105
CCTACTGGGCCAAAGTTCATTGATTCCAATGCTC = 6.06

GET /values?readout=PBM binding z-score&system=PPARg:RXRa IVT, anti-PPARg (NR concentration 270 nM, RXRa partner concentration 90 nM)&item= `AGAATGAGGTTACCAAAGATCAGGGAGACGCTTG`
3.22

====

Test system: PPARg:RXRa IVT, anti-PPARg (NR concentration 270 nM, RXRa partner concentration 90 nM)
PROTOCOL_DESCRIPTION: PBM binding z-score (relative to random genomic background probes); higher = stronger binding; sequences stand for … in GC…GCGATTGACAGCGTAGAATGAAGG
Would you please tag the item Criterion met when its PBM binding z-score is 2 or above, and Criterion not met when it is below?

Use the examples below as a reference point.
ATCGAAAGGTCGTGTGGTGAGTATACAGAAAGGC = Criterion not met
TCTTGTAGATCCGCAGGTTAAGAAAGCTGGCCAA = Criterion not met
TCATATAGGTAAATGCAAGGTGAAAGTCCGATCT = Criterion met

Given `CGTCAAAGTTCAACTAAGGTAACGGAAAGCACGC` , state whether its PBM binding z-score is at least 2.
Criterion met

# check: PBM binding z-score of `ATATGTAGGTTAGCTGGGGTAATTCAGACTAGGC` is greater than or equal to 2
Criterion met

====

System: VDR homodimer (NR concentration 270 nM)
PROTOCOL_DESCRIPTION: PBM binding z-score (relative to random genomic background probes); higher = stronger binding; sequences stand for … in GC…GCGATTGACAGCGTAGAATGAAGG
# cutoff 0.8 applies to PBM binding z-score; >= gives class 1, < gives class 0

Here's what some known entries look like.
GCTAGCAGGCCATTTGGGTCACTCAATGACGGGC = class 0
TCCTGTAGATCAGCAGGTTAAGAAAGCTGGCCAA = class 0
CAGACTAGGTCAAGGTCAAAGTCGGTTTGTGCCA = class 1
AGAATGAGGTAACCAAAGATCAGGGAAACGCTTG = class 0
GTACCAAAGTGAATAGGTCGTTGATGAGTAGGCG = class 0
CGTCCAAGGTCATAGGAGGTCAGTGACGACAGAT = class 1
GCTGCTAGTTCAGGTTGGTCAGCTAACGGGTACG = class 0
CCTGCTAGGTCATGGTCAACTAATCTACAGTATG = class 0

# check: PBM binding z-score of `TCGCGTAGGTTAGTCGGGGCATTCAGCCAACATA` is greater than or equal to 0.8
class 0

Can `TCATATAGGTAAATGCTAGGTGATAGTCCGATCT` be said to have PBM binding z-score at or above 0.8?
class 0

Dear colleague, could you confirm whether `AATACAGGGTCATCGTAGGCTAGAGTACGCACAG` has PBM binding z-score at or above 0.8?
class 1

I'd appreciate it if you could say whether `CCGACTGGCGCAAAGGTTACCATACTCAGTACGA` has PBM binding z-score at least equal to 0.8.
class 0

Given the entry `ACTAGCAGGCCAAGGGTCACGCAAGATTAGTCCG` , answer whether its PBM binding z-score meets or surpasses 0.8.
class 1

Could you verify whether the entry `TTACCAAGGTGAAAGGCCGTTGATGCACGCCTTG` shows PBM binding z-score of no less than 0.8?
class 0

====

Tested on: PPARg DBDmut IVT, anti-PPARg (DBD mutation: PPARg1 K132A/R137A, NR concentration 270 nM)
PROTOCOL_DESCRIPTION: PBM binding z-score (relative to random genomic background probes); higher = stronger binding; sequences stand for … in GC…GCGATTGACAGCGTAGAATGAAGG
MEASURED_PARAMETER: PBM binding z-score
Form rule: numeric answer, no unit written next to it.

Example results:
GCTGCTAGGTCAGGTTTGTCAGCTAACGGGTACG = -0.587
TCTTGTAGATCAAAGGTTGAGAAAGCCGAAGCCT = -0.0322
TAGCCAAGGTCATTGGGCCAGTATAGTACGCATC = 0.266
AGAATGAGGTAATTAAGATCAGGGAATTGCGGTC = -0.0371
ATCTCTAGGTAACCAAGTTCAGCGAATGCCGAAC = 0.686
CAAACTAGGTTACGAAAGGTCAAAGTCGAATGAC = 2.93
AGAATGAGGTTAAGATCAGGTAAACAGAATACAT = 0.933
GCTTGGAGATCAAGGTTAAGAAAGACTAAGCTAA = -0.611

// lookup PBM binding z-score for `TCTAGTTGGTCACGGAGGTCACACAGGACGGGTA`
-0.126

Can you share its PBM binding z-score? I mean this sequence: `CAAACTAGGACAAGGTCAAAGTCGGTTTGTGCCA`
1.21

Please report the recorded PBM binding z-score for `TCTAGCAGTCCAGAGGGTCACTCAAGAGGTACGG` .
-0.476

Any idea what its PBM binding z-score is? The sequence is `TCTAGCAGGCCAGAAGGTCACTCAAGAGGTACGG`
-1.25

====

Test system: PPARg DBDmut:RXRa IVT, anti-PPARg (DBD mutation: PPARg1 K132A/R137A, NR concentration 270 nM, RXRa partner concentration 90 nM)
PROTOCOL_DESCRIPTION: PBM binding z-score (relative to random genomic background probes); higher = stronger binding; sequences stand for … in GC…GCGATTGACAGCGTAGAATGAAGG
MEASURED_PARAMETER: PBM binding z-score
Write the number on its own, no unit after it.

Study these solved cases before continuing.
CGTCCAATGTCAAAGGTCAGTGAAGAGATGACGG = 0.777
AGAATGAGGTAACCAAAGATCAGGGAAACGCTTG = 1.22
CAAACTAGGTCCCAGAGGTCAAAGTCCGTGCGTA = 1.03
GCATATAGTTAATACAAGGTGAAAGTCCGATTGT = 0.14
CCTGCTAGATCATGGTCAGCTAATCTACAGTATG = -0.661

From here, focus on the item given below.
Which PBM binding z-score value belongs to `TCTCGGAGGACACGAAGGTCAGGGCTTTCCAGAG` ?
-0.402

====

Tested on: PPARg:RXRa 90nM:30nM, anti-RXR (NR concentration 90 nM, RXRa partner concentration 30 nM)
PROTOCOL_DESCRIPTION: PBM binding z-score (relative to random genomic background probes); higher = stronger binding; sequences stand for … in GC…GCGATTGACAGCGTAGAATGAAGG
Quick rule for you: PBM binding z-score at 2 or higher means Yes, lower means No.

Solved cases below.
CTACCATGGTGAACAAGGTCGTTGATTACTATTC = No
TCTGCTAGGTCAACGATGGACAGCTAATCTGCTA = Yes

Quick check: does `CTACCAAGGTGAACAAGGTCGTGGATTACTATTC` have PBM binding z-score greater than or equal to 2?
No

Is it the case that `CCGACTGGAGCAAGGTTACCATAACGCACAGCCA` has PBM binding z-score reaching or exceeding 2?
No

Is it the case that `TCTACAGGGTCAAAGGCCAGAGTACGAATGTCGA` has PBM binding z-score reaching or exceeding 2?
Yes

====

System: RXRa homodimer (NR concentration 180 nM)
PROTOCOL_DESCRIPTION: PBM binding z-score (relative to random genomic background probes); higher = stronger binding; sequences stand for … in GC…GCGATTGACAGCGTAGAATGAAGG
Tag: fulfilled if measured PBM binding z-score is not below 3, not fulfilled if it is.

State whether the measured PBM binding z-score reaches 3, counting equality as reaching it, for `TGTTGTAGATCAGCAGGTTAAGAAAGCTGGCCAA`
not fulfilled

Is the recorded value of PBM binding z-score equal to or greater than 3 for this sequence? `TCTTGTACATCAAGCAGGTTAAGAAAGCCTGAGT`
not fulfilled

Check if PBM binding z-score >= 3 (inclusive). Item: `CGTCCAAGGTTAATGCTAGGTCAGTGAAAGCATT`
not fulfilled
